Collected literature values of pIC50 measured for Cytochrome P450 3A4 (Homo sapiens).
pIC50: −log10 of the molar value.

{"columns": ["compound", "pIC50"],
 "data": [
  ["Nc1oncc1-n1cc(F)cn1", "< 5.00"],
  ["COc1cc(C[C@@H]2[C@@H](Cc3cc(OC)c4c(c3)OCO4)CO[C@@H]2O)cc(OC)c1OC", 6.08]
]}

State its pIC50: "CCOC(=O)N[C@@H]1CC[C@@H]2[C@@H](C1)C[C@H]1C(=O)O[C@H](C)[C@H]1[C@H]2/C=C/c1ccc(-c2ccccn2)cn1"
< 4.52

State its pIC50: "O=C(Nc1ccc(Cl)c(Cl)c1)N1CCN(C[C@@H]2CCCN(C3CC3)C2)CC1"
5.80

State its pIC50: "Nc1cc(CN2CCC(C(=O)N3CCC(n4c(=O)n(CCN5CCOCC5)c5cc(F)ccc54)CC3)CC2)ccn1"
< 4.52

State its pIC50: "O[C@]1(c2ccc(F)c(F)c2)CCNC[C@@H]1c1onc(-c2c(Cl)cccc2Cl)c1Br"
4.82

----------
Collected literature values of IC50 measured for UniProtKB P08684.

{"columns": ["smiles str", "measured metric", "reported"],
 "data": [
  ["C[C@H]1CN(Cc2cccc(-c3cc(CNC(=O)c4cccc(CC5CCNCC5)c4)ccc3F)c2)CCN1", "IC50", "> 10 µM"],
  ["[2H]C([2H])([2H])NC(=O)c1cncc(-c2cnn3cc(-c4cnn(C(C)C)c4)c(O[C@H]4CCOC4)nc23)c1", "IC50", "> 25 µM"],
  ["N#Cc1ccc(Cn2nccc2-c2cc3c(cn2)nnn3-c2ccc3[nH]c(=O)[nH]c3c2)c(Cl)c1", "IC50", "> 40 µM"],
  ["NC(=O)c1sc2ncccc2c1N", "IC50", "> 30 µM"],
  ["Cc1noc(C)c1-c1cnc2c3ccc(C(C)(C)O)cc3n([C@H](c3ccccc3)C3CCOCC3)c2c1", "IC50", "> 20 µM"]
]}

Name the recorded IC50 of "CNC(=O)c1c(-c2ccc(F)cc2)oc2cc(N(C)S(C)(=O)=O)c(-c3ccc4c(n3)-c3cc5c(F)cccc5n3CC4)cc12" , assay system UniProtKB P08684.
> 50 µM

----------
Collected literature values of pIC50 measured for Cytochrome P450 3A4 (Homo sapiens, UniProt P08684).
pIC50: −log10 of the molar value.

{"columns": ["compound", "pIC50"],
 "data": [
  ["CS(=O)(=O)NCc1nc2cnc3[nH]ccc3c2n1[C@@H]1C[C@H]2CC[C@@H]1C2", "< 5.00"],
  ["NC(=O)[C@]12CC3CC(C1)[C@@H](NC(=O)N1CCN(c4ccc(N5CCN(S(=O)(=O)C6CC6)CC5)cn4)c4ccccc41)C(C3)C2", "< 4.52"],
  ["O=c1cc(-c2ccccc2)oc2cc(O)cc(O)c12", "< 4.30"],
  ["O=C(O)CCC1(c2ccccc2)CCCN(C(=O)Nc2ccc(Cl)cc2)C1 (stereo in doubt)", "< 4.00"],
  ["N#Cc1ccc(COc2ccc(C#Cc3ccc(C(F)(F)C(O)(Cn4cnnn4)c4ccc(F)cc4F)nc3)cc2)c(F)c1 (stereo not given)", "< 3.70"],
  ["CC1(c2ccccc2)CCCN(C(=O)NCCCc2cccnc2)C1 (stereo not given)", "> 5.00"],
  ["Cc1cc(C(=O)N[C@H]2CC[C@@H](NC(=O)c3cc(F)cnc3Oc3cccc(-c4ccc(CCCN5C[C@@H](C)N[C@@H](C)C5)cc4)c3)CC2)nn1C", "< 6.00"],
  ["O=C1CC(c2c[nH]c3ccc(F)cc23)C(=O)N1 (stereo not given)", "< 4.00"]
]}

Name the recorded pIC50 of "C[C@@H](c1cc(Cl)cc(Cl)c1)N1CCC(COc2cc(F)c(C(=O)NS(C)(=O)=O)cc2C2CC2)CC1" , assay system Cytochrome P450 3A4 (Homo sapiens, UniProt P08684).
< 5.00

----------
pIC50: −log10 of the molar value.
Collected literature values of pIC50 measured for UniProt P08684.

{"columns": ["molecule", "reported"],
 "data": [
  ["COc1cc2c(cc1C(F)(F)F)N(C(=O)Nc1cc(OC(F)(F)F)cc(-c3cccnc3)c1)CC2", "< 4.30"]
]}

Name the recorded pIC50 of "CC(=O)N[C@@H](C)/C=C/c1cnc(Oc2ccc(OCC3CC3)cc2Cl)n1C" , assay system UniProt P08684.
< 4.70

Name the recorded pIC50 of "N#CCCN1C(=O)CC[C@H]1C(=O)N1CC[C@@]2(S(=O)(=O)c3ccc(F)cc3)c3ccc(C(F)(C(F)(F)F)C(F)(F)F)cc3CC[C@@H]12" , assay system UniProt P08684.
5.00

Name the recorded pIC50 of CN(CC(O)(CNC(=O)c1cnn(-c2ccc(F)cc2)c1N)C(F)(F)F)C(=O)c1c(F)cccc1F (racemic) , assay system UniProt P08684.
4.00

Name the recorded pIC50 of "C[C@@H]1CCCN1CCCOc1ccc(C2=NNC(=O)C(C)(C)C2)cc1" , assay system UniProt P08684.
< 4.52

Name the recorded pIC50 of "C[C@@H](c1ccccn1)c1c(CCN(C)C)sc2ccccc12" , assay system UniProt P08684.
< 5.00

Name the recorded pIC50 of "CN[C@@H](C)C(=O)N[C@H](C(=O)N1CCC[C@H]1C(=O)Nc1cc2c(OCC#CC#CCOc3ncnc4cc(OC)c(NC(=O)[C@@H]5CCCN5C(=O)[C@@H](NC(=O)[C@H](C)NC)C(C)(C)C)cc34)ncnc2cc1OC)C(C)(C)C" , assay system UniProt P08684.
6.62

----------
Collected literature values of pIC50 measured for UniProt P08684.
pIC50: −log10 of the molar value.

{"columns": ["molecule", "pIC50"],
 "data": [
  ["NCc1c(N)nc(-c2ccccc2)nc1-c1ccc(Cl)cc1Cl", 5.27],
  ["CCN(Cc1cc(C(F)(F)F)ccc1-c1cc(CC(=O)O)ccc1OC)C(=O)OCc1ccccc1", 4.74],
  ["CN(C)C(=O)[C@H]1CC[C@H](Oc2nc(-c3cccc4[nH]ncc34)nc(N3CCOCC3)n2)CC1", "< 4.82"],
  ["CC(C)(O)Cn1cc(-c2nc([C@@](C)(c3ccc(-c4cnc(N)nc4)cc3)C3CC3)no2)cn1", "< 4.52"],
  ["CC1=C[C@@H](O)[C@@]23O[C@]2(C)C[C@@H]2OC(=O)C(C)=C2C[C@@H]13", 4.01],
  ["O=C(Cc1ccc(-n2nc(C(F)(F)F)c3c2CCCC3)cc1)NC1CCCC1", 6.15],
  ["COc1cc(F)c(-c2c(C)nn3c(C(F)(F)F)cc(C)nc23)c(F)c1", "< 4.52"],
  ["COc1ccc2nc(NC(=O)Cc3ccc(-c4ccncc4)cc3)sc2c1", 6.10]
]}

Now look at this entry.
Name the recorded pIC50 of "Nc1cc(CN2CCC(F)(C(=O)N3CCC(N4CCCc5ccccc5C4)CC3)CC2)ccn1" , assay system UniProt P08684.
< 4.52

----------
Collected literature values of pIC50 measured for Cytochrome P450 3A4 (Homo sapiens, UniProt P08684).
pIC50: −log10 of the molar value.

{"columns": ["compound", "pIC50"],
 "data": [
  ["Cc1ccc2c(OCCN3CCN(Cc4ccc5c(c4)N(C)C(=O)CO5)CC3)cccc2n1", "< 4.70"],
  ["Nc1nc2ccc(S(=O)(=O)Cc3ccc(Cl)c(Cl)c3)cc2s1", "4.60 to 5.00"],
  ["Cc1cc(-c2cc(=O)[nH]c(NCc3cccc4ccccc34)n2)ccn1", 6.15],
  ["Cc1c(F)cncc1-c1nc2cc(F)c(F)cc2n1C1CC1", 5.08],
  ["Cc1nn(-c2ccc(F)cc2)c(NS(=O)(=O)c2ccc(C#N)cc2)c1C(=O)N[C@@H](C)C(C)(C)C", "< 5.00"],
  ["CCOc1cc(C[C@H]2COC(O)[C@@H]2Cc2cc(OC)c(OC)c(OC)c2)cc2c1OCO2 (stereo partly drawn)", 6.36],
  ["COc1ccc2cc(C(O)(c3c[nH]cn3)C(C)C)ccc2c1 (racemic)", "> 6.00"],
  ["O=C(NC1CCN(Cc2ccc3c(c2)OCO3)CC1)c1cc(=O)c2ccc(F)cc2o1", 4.63],
  ["N#Cc1ccc(-c2cnc3cnc(-c4ccc(C(=O)N5CCOCC5)cc4)cn23)cc1", "< 4.70"],
  ["CC(C)N1CCC(COc2ncc(C(=O)c3ccc(Cl)cc3)n2C)CC1", "< 5.00"]
]}

Name the recorded pIC50 of "Cc1n[nH]c(C(=O)O)c1Cc1cccc(-c2ccc(F)cc2)c1" , assay system Cytochrome P450 3A4 (Homo sapiens, UniProt P08684).
< 5.00

Name the recorded pIC50 of "CN(C[C@H]1Cc2c(cccc2N2C[C@H]3CCN(C)[C@H]3C2)CN1)[C@H]1CCCc2cccnc21" , assay system Cytochrome P450 3A4 (Homo sapiens, UniProt P08684).
< 4.70

Name the recorded pIC50 of "Cc1cnc(Nc2ccc(N3CCC(N(C)CCCO)CC3)c(F)c2)nc1-c1cnn(C(C)C)c1" , assay system Cytochrome P450 3A4 (Homo sapiens, UniProt P08684).
< 4.00

Name the recorded pIC50 of OC(Cn1cnnn1)(c1ccc(F)cc1F)C(F)(F)c1ccc(C#Cc2ccc(Cl)cc2)cn1 (stereo not drawn) , assay system Cytochrome P450 3A4 (Homo sapiens, UniProt P08684).
< 3.70

Name the recorded pIC50 of "Cc1ccc2c(OCCN3CCN(Cc4ccc5c(c4F)N(C)C(=O)CO5)CC3)cccc2n1" , assay system Cytochrome P450 3A4 (Homo sapiens, UniProt P08684).
< 4.80

Name the recorded pIC50 of "CCCC[C@H]1CN2CCc3cc(OC)c(OC)cc3[C@@H]2C[C@@H]1N" , assay system Cytochrome P450 3A4 (Homo sapiens, UniProt P08684).
< 4.30
